# System under test: CDK12 complexed with Cyclin K (Homo sapiens, UniProt Q9NYV4)
# Construct: GST (N)
# Sequence (Q9NYV4 whole entry): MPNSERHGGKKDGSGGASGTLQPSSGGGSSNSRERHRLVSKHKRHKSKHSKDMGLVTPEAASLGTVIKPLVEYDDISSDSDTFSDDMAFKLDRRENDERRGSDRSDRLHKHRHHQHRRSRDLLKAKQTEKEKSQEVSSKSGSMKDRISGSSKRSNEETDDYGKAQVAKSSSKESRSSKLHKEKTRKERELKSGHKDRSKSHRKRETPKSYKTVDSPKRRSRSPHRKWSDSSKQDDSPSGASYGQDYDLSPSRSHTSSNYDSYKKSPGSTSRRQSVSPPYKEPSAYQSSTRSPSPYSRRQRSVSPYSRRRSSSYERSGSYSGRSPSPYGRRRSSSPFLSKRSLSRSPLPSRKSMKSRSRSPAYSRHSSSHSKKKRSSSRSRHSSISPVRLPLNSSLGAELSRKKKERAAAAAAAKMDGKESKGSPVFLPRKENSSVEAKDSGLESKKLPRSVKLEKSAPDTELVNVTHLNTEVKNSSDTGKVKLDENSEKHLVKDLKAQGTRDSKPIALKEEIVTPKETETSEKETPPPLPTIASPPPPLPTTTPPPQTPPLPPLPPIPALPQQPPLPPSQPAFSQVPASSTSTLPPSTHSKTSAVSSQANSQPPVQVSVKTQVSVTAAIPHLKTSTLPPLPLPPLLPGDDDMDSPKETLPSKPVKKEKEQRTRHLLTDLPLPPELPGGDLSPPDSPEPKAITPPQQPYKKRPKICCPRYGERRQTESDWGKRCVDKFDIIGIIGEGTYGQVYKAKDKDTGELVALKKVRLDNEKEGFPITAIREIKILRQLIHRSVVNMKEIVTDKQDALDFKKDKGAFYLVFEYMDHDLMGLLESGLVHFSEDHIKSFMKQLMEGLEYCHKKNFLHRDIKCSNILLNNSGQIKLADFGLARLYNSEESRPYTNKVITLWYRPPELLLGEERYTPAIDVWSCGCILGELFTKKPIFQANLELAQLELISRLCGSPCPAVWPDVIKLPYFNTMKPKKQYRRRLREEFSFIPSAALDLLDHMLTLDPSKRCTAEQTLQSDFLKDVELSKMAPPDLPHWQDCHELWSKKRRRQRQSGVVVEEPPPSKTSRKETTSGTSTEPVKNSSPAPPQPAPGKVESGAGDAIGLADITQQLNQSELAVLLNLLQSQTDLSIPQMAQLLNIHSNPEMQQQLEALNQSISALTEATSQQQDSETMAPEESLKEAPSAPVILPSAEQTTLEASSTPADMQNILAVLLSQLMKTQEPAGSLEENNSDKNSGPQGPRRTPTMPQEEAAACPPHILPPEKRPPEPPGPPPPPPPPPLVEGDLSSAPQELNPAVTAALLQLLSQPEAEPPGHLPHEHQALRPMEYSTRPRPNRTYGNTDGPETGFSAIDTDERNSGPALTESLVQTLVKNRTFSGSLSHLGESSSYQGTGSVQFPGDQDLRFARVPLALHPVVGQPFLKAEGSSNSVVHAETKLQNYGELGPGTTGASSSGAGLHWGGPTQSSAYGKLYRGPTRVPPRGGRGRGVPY
# Sequence (O75909 whole entry partner): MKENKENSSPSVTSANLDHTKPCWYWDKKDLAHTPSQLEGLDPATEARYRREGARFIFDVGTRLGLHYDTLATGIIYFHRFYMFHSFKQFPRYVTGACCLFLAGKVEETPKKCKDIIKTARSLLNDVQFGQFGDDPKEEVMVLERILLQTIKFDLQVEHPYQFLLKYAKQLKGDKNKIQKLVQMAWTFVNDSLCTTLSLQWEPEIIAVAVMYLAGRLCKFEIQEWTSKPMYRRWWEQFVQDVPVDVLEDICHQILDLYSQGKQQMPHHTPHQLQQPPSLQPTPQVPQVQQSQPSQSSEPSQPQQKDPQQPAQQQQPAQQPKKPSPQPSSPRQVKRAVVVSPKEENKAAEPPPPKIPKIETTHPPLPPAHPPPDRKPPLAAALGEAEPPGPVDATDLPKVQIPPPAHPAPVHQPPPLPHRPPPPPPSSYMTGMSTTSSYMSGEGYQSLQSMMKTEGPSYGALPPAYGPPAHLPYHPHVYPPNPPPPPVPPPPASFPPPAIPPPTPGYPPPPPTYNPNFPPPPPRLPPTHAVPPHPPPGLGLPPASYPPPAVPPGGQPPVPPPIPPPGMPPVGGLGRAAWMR
# Test summary: CDK enzymatic assay (HTRF, LANCE Ultra kinase assay)
# Measurement context: 60 minutes pre-incubation with compound; 1 mM ATP
Assignment: determine reported IC50 for the given molecules.

Field: example entries. Status: answers known.
[
  {
    "Molecule": "C=CC(=O)Nc1ccc(C(=O)N2CC[C@@H](Nc3nc4ccc(-c5cn[nH]c5)c(C(C)C)n4n3)C2)cc1",
    "Measured metric": "IC50",
    "Result": "< 50 nM"
  },
  {
    "Molecule": "C=CC(=O)Nc1ccc(C(=O)N2CCC[C@@H](Nc3nc4ccc(-c5cn[nH]c5)c(OC5CCOCC5)n4n3)C2)cc1",
    "Measured metric": "IC50",
    "Result": "< 50 nM"
  },
  {
    "Molecule": "C=CC(=O)Nc1ccc(O[C@H]2CCC[C@@H](Nc3nc4ccc(-c5cn[nH]c5)c(N5CCCCC5)n4n3)C2)cc1",
    "Measured metric": "IC50",
    "Result": "< 50 nM"
  },
  {
    "Molecule": "C=CC(=O)Nc1ccc2c(c1)nc(N1CCC[C@@H](Nc3nc4ccc(-c5cn[nH]c5)c(C(F)(F)F)n4n3)C1)n2C",
    "Measured metric": "IC50",
    "Result": "< 50 nM"
  },
  {
    "Molecule": "C=CC(=O)Nc1ccc2sc(N3CCC[C@@H](Nc4nc5ccc(-c6cn[nH]c6)c(C(C)C)n5n4)C3)nc2c1",
    "Measured metric": "IC50",
    "Result": "< 50 nM"
  },
  {
    "Molecule": "C=CC(=O)Nc1ccc2sc(N3CCC[C@@H](Nc4nc5ccc(-c6cn[nH]c6)c(C(F)(F)F)n5n4)C3)nc2c1",
    "Measured metric": "IC50",
    "Result": "< 50 nM"
  },
  {
    "Molecule": "C=CC(=O)Nc1ccc(C(=O)N2CC[C@@H](Nc3nc4ccc(-c5cn[nH]c5)c(C#N)n4n3)C2)cc1",
    "Measured metric": "IC50",
    "Result": "< 50 nM"
  },
  {
    "Molecule": "C=CC(=O)Nc1ccc(C(=O)N2CCC[C@@H](Nc3nc4c(OC)c(-c5cn[nH]c5)ncn4n3)C2)cc1",
    "Measured metric": "IC50",
    "Result": "< 50 nM"
  },
  {
    "Molecule": "C=CC(=O)Nc1ccc(C(=O)N2CCC[C@@H](Nc3nc4ccc(-c5cn[nH]c5)c(N5CCOCC5)n4n3)C2)cc1",
    "Measured metric": "IC50",
    "Result": "< 50 nM"
  },
  {
    "Molecule": "C=CC(=O)Nc1ccc(C(=O)N2CC[C@@H](Nc3nc4ccc(-c5cn[nH]c5)cn4n3)C2)cc1",
    "Measured metric": "IC50",
    "Result": "< 50 nM"
  }
]

I would be grateful if you could provide IC50 for each of the following entries.
1. C=C(F)C(=O)Nc1ccc(C(=O)N2CC[C@@H](Nc3nc4c(C)c(-c5cn[nH]c5)ccn4n3)C2)cc1
2. C=CC(=O)Nc1ccc(C(=O)N2CC[C@@H](Nc3nc4ccc(-c5cn[nH]c5)c(C(C)C)n4n3)C2)cc1F
3. C=CC(=O)Nc1ccc(C(=O)N2CCCC(Nc3nc4ccc(-c5c[nH]nc5C)c(N5CCOCC5)n4n3)C2)cc1 (stereo not drawn)
4. C=CC(=O)Nc1ccc(C(=O)N2CC[C@@H](Nc3nc4ccc(-c5cn[nH]c5)c(C(F)(F)F)n4n3)C2)cc1
5. C=CC(=O)Nc1ccc2c(c1)nc(N1CCC[C@@H](Nc3nc4ccc(-c5cn[nH]c5)c(C(C)C)n4n3)C1)n2C

1: < 50 nM; 2: < 50 nM; 3: > 500 nM; 4: < 50 nM; 5: < 50 nM
